Origin of the recorded values: ChEMBL document CHEMBL4706653

assay: Therapeutic index, ratio of MHC for mouse RBC to geometric mean of peptide MIC for Staphylococcus epidermidis ATCC 12228; assay type: toxicity; conditions: pooled result: one value given for 6 cell lines, strains, targets or settings, read-out: TI
Residues, ends and D or L forms follow the SMILES beside them. *: point of attachment. Palmitoyl = CCCCCCCCCCCCCCCC(=O)*; Myristoyl = CCCCCCCCCCCCCC(=O)*; Lauroyl = CCCCCCCCCCCC(=O)*; Octanoyl = CCCCCCCC(=O)*
measurement.type: selectivity ratio

{"compound": "CCCCCCCC(=O)N[C@@H](CCCNC(=N)N)C(=O)N[C@@H](CCCNC(=N)N)C(=O)N[C@@H](Cc1c[nH]c2ccccc12)C(N)=O (Octanoyl-Arg-Arg-Trp-NH2)", "test.value": 7.38}
{"compound": "CCCCCCCCCCCCCC(=O)N[C@@H](Cc1c[nH]c2ccccc12)C(=O)N[C@@H](CCCNC(=N)N)C(=O)N[C@@H](CCCNC(=N)N)C(N)=O (Myristoyl-Trp-Arg-Arg-NH2)", "test.value": 13.7}
{"compound": "CCCCCCCCCCCCCCCC(=O)N[C@@H](CCCNC(=N)N)C(=O)N[C@@H](Cc1c[nH]c2ccccc12)C(=O)N[C@@H](Cc1c[nH]c2ccccc12)C(N)=O (Palmitoyl-Arg-Trp-Trp-NH2)", "test.value": 18.3}
{"compound": "CCCCCCCCCCCC(=O)N[C@@H](Cc1c[nH]c2ccccc12)C(=O)N[C@@H](CCCNC(=N)N)C(=O)N[C@@H](CCCNC(=N)N)C(N)=O (Lauroyl-Trp-Arg-Arg-NH2)", "test.value": 8.73}
{"compound": "CCCCCCCCCCCCCCCC(=O)N[C@@H](CCCNC(=N)N)C(=O)N[C@@H](CCCNC(=N)N)C(=O)N[C@@H](Cc1c[nH]c2ccccc12)C(N)=O (Palmitoyl-Arg-Arg-Trp-NH2)", "test.value": 5.05}
